assay system: second (BD2: amino acids E352-E168) bromodomain of BRD4 (Homo sapiens)
Construct: protocol
measurement description: TR-FRET bromodomain binding assay, BRD4 BD2
conditions used: TR-FRET assay protocol (A-G, compound concentration range); Ki calculated from IC50, probe Kd and probe concentration; read-out: TR-FRET Binding Ki: BRD4 (BDII_E352-M457)
Hi! Could you tag entries with Ki below 300 nM as True, and those at or above as False? Much appreciated.

CCOc1cc(=O)n(C)cc1-c1cc(NC(=O)c2ccc(N(CC)CC)cc2)ccc1Oc1ccc(F)cc1F; True
CCS(=O)(=O)Nc1ccc(OC2CCC(F)(F)CC2)c(-c2c[nH]c(=O)c(C)c2)c1; True
COC(=O)CCc1ccc(-c2cc(=O)n(C)nc2-c2ccccc2Oc2ccccc2)cc1; False
CCS(=O)(=O)Nc1ccc(Oc2ccc(F)cc2F)c(-c2cn(C)c(=O)cc2-c2ccc(CN3CCN(C)CC3)cc2)c1; True

Dear colleague, could you confirm whether Ki of Cn1nc(-c2ccccc2Oc2ccccc2)c(-c2cccc(C(=O)N3CCSCC3)c2)cc1=O falls below 300 nM? Thanks.
False

Dear colleague, could you confirm whether Ki of COC(=O)CNc1cc(=O)n(C)nc1-c1ccccc1Oc1ccccc1 falls below 300 nM? Thanks.
False

Dear colleague, could you confirm whether Ki of Cc1cccc(OCC2CC2)c1-c1ccc(=O)n(C)c1 falls below 300 nM? Thanks.
False

Dear colleague, could you confirm whether Ki of Cn1nc(-c2ccccc2-c2cccc(C#N)c2)ccc1=O falls below 300 nM? Thanks.
False

Dear colleague, could you confirm whether Ki of CCS(=O)(=O)c1ccc(OCC2CC2)c(-c2cc(NS(C)(=O)=O)c(=O)n(C)c2)c1 falls below 300 nM? Thanks.
False

Dear colleague, could you confirm whether Ki of Cn1nc(-c2ccccc2Oc2ccccc2)c(-c2ccc(C=O)cc2)cc1=O falls below 300 nM? Thanks.
True

###

assay system: second (BD2: amino acids E352-E168) bromodomain of BRD4 (Homo sapiens, UniProt O60885)
Construct: protocol
measurement description: TR-FRET bromodomain binding assay, BRD4 BD2
conditions used: TR-FRET assay protocol (A-G, compound concentration range); Ki calculated from IC50, probe Kd and probe concentration; read-out: TR-FRET Binding Ki: BRD4 (BDII_E352-M457)
Recorded Ki, one value per entry.
Answer format: numeric, µM implied, no suffix.

CCS(=O)(=O)Nc1ccc(Oc2ccc(F)cc2F)c(-c2cn(C)c(=O)cc2NCC2CC2)c1; 0.0023
CC1CCN(Cc2ccc(-c3cc(=O)n(C)nc3-c3ccccc3Oc3ccccc3)cc2)CC1; 0.0719
CNC(=O)c1cccc(-c2cc(=O)n(C)nc2-c2ccccc2Oc2ccccc2)c1; 0.376
CCS(=O)(=O)c1ccc(O[C@H]2CC[C@@](C)(OC)CC2)c(-c2ccc(=O)n(C)c2)c1; 0.7
CN1CCN(Cc2ccc(-c3cc(=O)n(C)cc3-c3cc(NS(C)(=O)=O)ccc3Oc3ccc(F)cc3F)cc2)CC1; 0.00245
CCS(=O)(=O)c1ccc(Oc2ccc(F)cc2F)c(-c2cn(C)c(=O)cc2Oc2ccc(F)cc2F)c1; 0.182

Switching to the query record.
Report Ki for CCS(=O)(=O)Nc1ccc(Oc2ccc(F)cc2F)c(-c2cn(C)c(=O)cc2-c2ccc(N3CCN(C)CC3)cc2)c1 please.
0.000584

# credit: patent US9561231B2
